Each entry below carries its recorded viability, T/C.
System: 922993-354-T-J3-PDC complex spheroids, viability, % test/control;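 also: spheroids exposed to the agents for 7 days before readout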
Test: Anticancer human tumor 922993-354-T-J3-PDC patient-derived endometrial carcinoma cell line growth inhibition [CLK]
Conditions: second compound 0.316 µM; first compound 0.316 µM; hits give low values

molecule	viability, T/C / %
O=c1[nH]cc(F)c(=O)[nH]1 + CN1CCN(c2cc(C(=O)Nc3cc4cc(-c5cnn(C)c5)ccc4cn3)ccn2)CC1	33.3
O=C(c1cc(Cc2n[nH]c(=O)c3ccccc23)ccc1F)N1CCN(C(=O)C2CC2)CC1 + CNC(=O)c1ccc(Nc2nc(OC3CCCC3)c3c(-c4ccc5nc(C)oc5c4)c[nH]c3n2)c(OC)c1	67.1
C=C(F)C(=O)N1CCN(c2nc(OCC3CCCN3C)nc3c2CCN(c2cccc4cccc(Cl)c24)C3)CC1CC#N (stereo unspecified) + CN1CCN(c2cc(C(=O)Nc3cc4cc(-c5cnn(C)c5)ccc4cn3)ccn2)CC1	36.4
CCN1CCN(Cc2ccc(Nc3ncc(F)c(-c4cc(F)c5nc(C)n(C(C)C)c5c4)n3)nc2)CC1 + CN1CCN(c2cc(C(=O)Nc3cc4cc(-c5cnn(C)c5)ccc4cn3)ccn2)CC1	36.4
O=c1[nH]cc(F)c(=O)[nH]1 + CNC(=O)c1ccc(Nc2nc(OC3CCCC3)c3c(-c4ccc5nc(C)oc5c4)c[nH]c3n2)c(OC)c1	57.7
COc1cccc2c1C(=O)c1c(O)c3c(c(O)c1C2=O)CC(O)(C(=O)CO)CC3OC1CC(N)C(O)C(C)O1 (stereo unspecified) + CNC(=O)c1ccc(Nc2nc(OC3CCCC3)c3c(-c4ccc5nc(C)oc5c4)c[nH]c3n2)c(OC)c1	66.6
